biological target: Adrenergic receptor alpha-2 (Rattus norvegicus, UniProt P22086+P19328+P22909); assay: Displacement of [3H]RX821002 from Alpha-2 adrenergic receptor in Sprague-Dawley rat brain P2 membranes after […] by liquid scintillation counting
Labelling: Ki reported below 20 nM becomes MET; at or above becomes NOT MET.

The following compounds have reported results that may help.
test_smiles=Cl.Fc1cccc2ccn(CC3=NCCN3)c12 measured_target="Adrenergic receptor alpha-2 (Rattus norvegicus, UniProt P22086+P19328+P22909)" assigned_category=MET
test_smiles=Cl.Clc1cccc2ccn(CC3=NCCN3)c12 measured_target="Adrenergic receptor alpha-2 (Rattus norvegicus, UniProt P22086+P19328+P22909)" assigned_category=MET
test_smiles=Cl.c1ccc2c(c1)ccn2CC1=NCCN1 measured_target="Adrenergic receptor alpha-2 (Rattus norvegicus, UniProt P22086+P19328+P22909)" assigned_category="NOT MET"
test_smiles=Cl.Fc1ccc2c(ccn2CC2=NCCN2)c1 measured_target="Adrenergic receptor alpha-2 (Rattus norvegicus, UniProt P22086+P19328+P22909)" assigned_category="NOT MET"
test_smiles=CCc1cccc2ccn(CC3=NCCN3)c12.Cl measured_target="Adrenergic receptor alpha-2 (Rattus norvegicus, UniProt P22086+P19328+P22909)" assigned_category="NOT MET"
test_smiles=Br.Cc1cccc2ccn(CC3=NCCN3)c12 measured_target="Adrenergic receptor alpha-2 (Rattus norvegicus, UniProt P22086+P19328+P22909)" assigned_category=MET

Attention now turns to another entry.
Query: Hello, I'm reviewing records and need to know if Ki of "Brc1cccc2ccn(CC3=NCCN3)c12.Cl" is below 20 nM. Could you check?
Result: MET
